# credit: paper PMC9616902

The reader will find reported Sinf values listed item by item below.
Biological target: Human ROCK1 protein (amino acids 1–477) (Homo sapiens, UniProt Q13464)
Construct: purchased Carna Biosciences 01-109
Sequence (Q13464 1-477): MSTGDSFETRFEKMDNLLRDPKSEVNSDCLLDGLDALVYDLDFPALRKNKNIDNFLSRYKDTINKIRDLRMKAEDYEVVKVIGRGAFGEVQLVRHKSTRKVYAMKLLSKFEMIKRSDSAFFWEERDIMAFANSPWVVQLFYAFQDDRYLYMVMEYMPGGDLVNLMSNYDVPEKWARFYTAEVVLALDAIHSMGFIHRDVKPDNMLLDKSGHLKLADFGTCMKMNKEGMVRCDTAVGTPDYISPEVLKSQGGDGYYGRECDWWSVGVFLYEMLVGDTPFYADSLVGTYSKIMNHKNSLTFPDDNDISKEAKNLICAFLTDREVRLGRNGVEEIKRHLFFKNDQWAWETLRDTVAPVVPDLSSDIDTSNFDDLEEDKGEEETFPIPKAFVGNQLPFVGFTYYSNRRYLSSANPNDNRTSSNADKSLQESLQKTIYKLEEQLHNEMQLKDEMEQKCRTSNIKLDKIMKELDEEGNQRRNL
Test: ROCK1 HTRF KinEASE-STK S2 biochemical activity assay
Conditions: 2021-01-18 ROCK1 HTRF (n=2) 665/620 Activity [%]; curve fit parameter

[[record]]
compound = "CC(CNC(=O)c1ccc(-c2cn[nH]c2)cc1)N1CCc2ccccc21 (stereo not drawn)"
result = "-98.8967%"

[[record]]
compound = "CC(Cc1ccc(F)cc1F)NC(=O)c1ccc(-c2cn[nH]c2)cc1 (racemic)"
result = "-97.6218%"

[[record]]
compound = "COCc1cccc(CC(=O)Nc2ccc(-c3cn[nH]c3)cc2)c1"
result = "-99.1049%"

[[record]]
compound = "CSc1cccc(F)c1CNC(=O)c1ccc(-c2cn[nH]c2)cc1"
result = "-98.3773%"

[[record]]
compound = "CC(NC(=O)c1ccc(-c2cn[nH]c2)cc1)C1CC1c1ccccc1 (mixture of isomers)"
result = "-94.0095%"


Moving on to another compound below.
Look at this compound and give its reported Sinf. `O=C(NCC1(Cc2ccccc2)CC1)c1ccc(-c2cn[nH]c2)cc1` -95.9487%

* * *

Biological target: Human ROCK1 protein (amino acids 1–477) (Homo sapiens, UniProt Q13464)
Construct: purchased Carna Biosciences 01-109
Experiment: ROCK1 HTRF KinEASE-STK S2 biochemical activity assay
Conditions: 2021-01-18 ROCK1 (n=3); curve fit parameter
The entries below are paired with their reported nHill.
Please reply with the number alone, leaving off any unit.

[[record]]
compound = "COCc1cccc(CC(=O)Nc2ccc(-c3cn[nH]c3)cc2)c1 [Compound 1]"
assay_readout = "nHill"
numeric_readout = 1.109


Name the reported nHill value associated with the compound CC(Cc1ccc(F)cc1F)NC(=O)c1ccc(-c2cn[nH]c2)cc1 (racemic) [Compound 3] 1.245

What about CSc1cccc(F)c1CNC(=O)c1ccc(-c2cn[nH]c2)cc1 [Compound 5] ? 0.9507

Another: CC(CNC(=O)c1ccc(-c2cn[nH]c2)cc1)N1CCc2ccccc21 (stereo not drawn) [Compound 2] 0.9439

How about this compound: CC(NC(=O)c1ccc(-c2cn[nH]c2)cc1)C1CC1c1ccccc1 (mixture of isomers) [Compound 6] 1.532

Please do the same for O=C(NCC1(Cc2ccccc2)CC1)c1ccc(-c2cn[nH]c2)cc1 [Compound 4] as well. 1.483

* * *

Target: Human ROCK1 protein (amino acids 1–477) (Homo sapiens)
Construct: purchased Carna Biosciences 01-109
Experiment: ROCK1 HTRF KinEASE-STK S2 biochemical activity assay
Conditions: 2021-01-18 ROCK1 (n=3) 665/620 Activity [%]; curve fit parameter
Below is a list of entries, each paired with its recorded S0 value.
Entry rule: numbers only, all in %.

Completed entries (count: 3):
[[record]]
molecule = "O=C(NCC1(Cc2ccccc2)CC1)c1ccc(-c2cn[nH]c2)cc1"
subject_of_test = "Human ROCK1 protein (amino acids 1–477) (Homo sapiens)"
numeric_readout = -5.138

[[record]]
molecule = "CC(CNC(=O)c1ccc(-c2cn[nH]c2)cc1)N1CCc2ccccc21 (stereo not drawn)"
subject_of_test = "Human ROCK1 protein (amino acids 1–477) (Homo sapiens)"
numeric_readout = 1.158

[[record]]
molecule = "CC(Cc1ccc(F)cc1F)NC(=O)c1ccc(-c2cn[nH]c2)cc1 (racemic)"
subject_of_test = "Human ROCK1 protein (amino acids 1–477) (Homo sapiens)"
numeric_readout = -2.06


What value of S0 has been reported for the following molecule? CC(NC(=O)c1ccc(-c2cn[nH]c2)cc1)C1CC1c1ccccc1 (mixture of isomers) -2.655

Next up: `COCc1cccc(CC(=O)Nc2ccc(-c3cn[nH]c3)cc2)c1` -1.802

Note, next up: `CSc1cccc(F)c1CNC(=O)c1ccc(-c2cn[nH]c2)cc1` -0.4047
